Provide the recorded pKd for the entries that follow.
- experimentalTarget: T1, hVISTA-ECD 6-His tag (human, UniProt Q9H7M9 33-193)
- T1 construct: also called monovalent hVISTA-ECD; human VISTA
- T1 sequence (Q9H7M9 other isoform, or with tags, fused parts or gaps limits assumed): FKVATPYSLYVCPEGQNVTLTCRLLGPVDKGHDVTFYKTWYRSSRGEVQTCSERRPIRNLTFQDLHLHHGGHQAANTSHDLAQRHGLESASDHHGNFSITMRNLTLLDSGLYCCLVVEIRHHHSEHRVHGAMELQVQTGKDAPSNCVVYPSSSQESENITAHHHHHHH
- experimentalDetails: SPR 37 C, Ab on Protein A, pH 6.0
Scale: pKd equals -log10([C]), with [C] in mol/L.

Data request: Return value of pKd for input P1-077859 (P1-068744 H50I E100S) (antibody, V domains shown) VH: QVQLVESGGGVVQPGRSLRLSCAASGFTFSEYAMHWVRQAPGKGLEWVAIIWYDGSNKYEADSVKGRFTISRDNSKNTLYLQMNSLRAEDTAVYYCARDSGFYSSYYFDEWGQGTLVTVSS VL: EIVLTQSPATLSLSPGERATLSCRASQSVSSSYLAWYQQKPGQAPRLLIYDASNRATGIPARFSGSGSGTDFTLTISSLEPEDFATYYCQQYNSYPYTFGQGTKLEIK , no commentary.
Data returned: 8.64

Data request: Return value of pKd for input P1-068744 (antibody, human IgG1, kappa, V domains shown, also called P1-068744-7) VH: QVQLVESGGGVVQPGRSLRLSCAASGFTFSEYAMHWVRQAPGKGLEWVAHIWYDGSNKYEADSVKGRFTISRDNSKNTLYLQMNSLRAEDTAVYYCARDSGFYESYYFDEWGQGTLVTVSS VL: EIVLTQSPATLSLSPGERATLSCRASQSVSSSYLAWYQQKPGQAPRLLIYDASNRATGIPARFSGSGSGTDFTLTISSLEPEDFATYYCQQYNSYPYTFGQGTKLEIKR , no commentary.
Data returned: 7.70

Data request: Return value of pKd for input P1-077845 (P1-068744 E31S H50I) (antibody, V domains shown) VH: QVQLVESGGGVVQPGRSLRLSCAASGFTFSSYAMHWVRQAPGKGLEWVAIIWYDGSNKYEADSVKGRFTISRDNSKNTLYLQMNSLRAEDTAVYYCARDSGFYESYYFDEWGQGTLVTVSS VL: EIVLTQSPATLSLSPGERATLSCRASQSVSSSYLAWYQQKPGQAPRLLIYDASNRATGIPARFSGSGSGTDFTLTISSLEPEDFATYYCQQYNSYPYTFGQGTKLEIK , no commentary.
Data returned: 8.77
